Recorded total protein half-life in vivo, one value per entry.
Assay Info: total protein half-life in vivo (active degradation + dilution); higher = more stable protein
Measurement Context: wild type E. coli NCM3722; growth: N-lim chemostat; doubling time 12 h
Give just the number in h; leave the unit off.

INSERT INTO assay_data (seq_string, readout_type, endpoint_value) VALUES
  ('MLYIFDLGNVIVDIDFNRVLGAWSDLTRIPLASLKKSFHMGEAFHQHERGEISDEAFAEALCHEMALPLSYEQFSHGWQAVFVALRPEVIAIMHKLREQGHRVVVLSNTNRLHTTFWPEEYPEIRDAADHIYLSQDLGMRKPEARIYQHVLQAEGFSPSDTVFFDDNADNIEGANQLGITSILVKDKTTIPDYFAKVLC [P0A8Y3]', 'total protein half-life in vivo', 6.16),
  ('MTMNSFERRNKIIQLVNEQGTVLVQDLAGVFAASEATIRADLRFLEQKGVVTRFHGGAAKIMSGNSETETQEVGFKERFQLASAPKNRIAQAAVKMIHEGMTDPTHVIWTQA', 'total protein half-life in vivo', 11.3);

Could you now look at the following sequence, please?
Enquiry: // total protein half-life in vivo lookup, key: MFKKSVLFATLLSGVMAFSTNADDKIILKHISVSSVSASPTVLEDTIADIARKYNASSWKVTSMRIDNNSTATAVLYK
Return: 9.35
